test system: T-47D breast; test: NCI tumour cell line growth inhibition, 48 h
Catalogue of molecules with associated TGI
Dear colleague, please return just the value in µM, with no unit written.

>>> observed_measurement("O=C(N[C@@H](Cc1ccccc1)B(O)O)[C@H](Cc1cccc2ccccc12)NC(=O)N1CCOCC1")
0.00368

Enquiry: For OC1(C2(c3ccc(Cl)cc3)CCCC2)c2ccccc2C2=NCCN21 (stereo not given) , what is its reported TGI?
Return: 22

Enquiry: For N#CC1=C(S)N(C2OC(CO)C(O)C(O)C2O)C(c2ccccc2)=CC1c1cccs1 (stereo not given) , what is its reported TGI?
Return: 65.7

Enquiry: For `CN[C@H]1CC[C@]23C[C@]24CC[C@]2(C)[C@@H]([C@H](C)N(C)C)CC[C@@]2(C)[C@@H]4CC[C@H]3C1(C)C` , what is its reported TGI?
Return: 35.2

Reference for the values: PubChem BioAssay (NCI)
